Entries and their measured EC50 follow.
Tested on: HCV pseudoparticles, genotype 1a (H77C) E1 and E2 envelope
protocol-summary: microbe, parasite or virus in culture
Type: cell-based, HCV genotype 1a (H77C isolate)
assay-context: Hepatitis C virus, Huh-7, 48 h, read-out: EC50 (nM) 1a (H77C), Table 1b, class; HCV pseudoparticles 1a (H77C), Huh7 cells, luciferase 2 days after infection
measurement-name: EC50

> print(dat)
                                    compound   value.reported
 1  CCOC(=O)N1CCCOc2ccc(cc2)CNc2nc(nc(OCC(F)(F)F)n2)Nc2ccc(cc2)C(=O)NCC1 [Example 6005]    0.1 to 100 nM
 2  O=C1NCCCNCCCOc2ccc(cc2)C2(CC2)Nc2nc(nc(OCC(F)(F)F)n2)Nc2ccc1cc2 [Example 5001]    0.1 to 100 nM
 3  O=C1NCCCCCNCCNc2nc(nc(OCC(F)(F)F)n2)Nc2ccc1cc2 [Example 8002]  1000 to 5000 nM
 4  CCOC(=O)N1CCCNC(=O)c2ccc(cc2)Nc2nc(nc(OCC(F)(F)F)n2)NC2(CC2)c2ccc(cc2)OCCC1 [Example 5002]    0.1 to 100 nM
 5  CCC(=O)N1CCCOc2ccc(cc2)CNc2nc(nc(OCC(F)(F)F)n2)Nc2ccc(cc2)C(=O)NCC1 [Example 6007]    0.1 to 100 nM
 6  O=C1NCCCCNCCCNc2nc(nc(OCC(F)(F)F)n2)Nc2ccc1cc2 [Example 7001]  1000 to 5000 nM
 7  CC(C)(C)NC(=O)N1CCCOc2ccc(cc2)CNc2nc(nc(OCC(F)(F)F)n2)Nc2ccc(cc2)C(=O)NCC1 [Example 6001]    0.1 to 100 nM
 8  CC(C)NC(=O)N1CCCOc2ccc(cc2)CNc2nc(nc(OCC(F)(F)F)n2)Nc2ccc(cc2)C(=O)NCC1 [Example 6003]    0.1 to 100 nM
 9  CC(C)(C)NC(=O)N1CCCNC(=O)c2ccc(cc2)Nc2nc(nc(OCC(F)(F)F)n2)NCc2ccc(cc2)OCCC1 [Example 6013]    0.1 to 100 nM
10  CCCN1CCCOc2ccc(cc2)CNc2nc(nc(OCC(F)(F)F)n2)Nc2ccc(cc2)C(=O)NCC(C)(C)C1 [Example 6039]    0.1 to 100 nM
11  CCC(=O)N1CCCCNC(=O)c2ccc(cc2)Nc2nc(nc(OCC(F)(F)F)n2)NC2(CC2)c2ccc(cc2)OCCC1 [Example 5005]    0.1 to 100 nM
12  O=C1NCCCNCCCCCCCCNc2nc(nc(OCC(F)(F)F)n2)Nc2ccc1cc2 [Example 9001]   100 to 1000 nM
13  CC(C)OC(=O)N1CCCOc2ccc(cc2)CNc2nc(nc(OCC(F)(F)F)n2)Nc2ccc(cc2)C(=O)NCC1 [Example 6004]    0.1 to 100 nM
14  CCOC(=O)N1CCCOc2ccc(cc2)CNc2nc(nc(OCC(F)(F)F)n2)Nc2ccc(cc2)C(=O)NCC(C)(C)C1 [Example 6033]    0.1 to 100 nM
15  CC(C)C(=O)N1CCCOc2ccc(cc2)CNc2nc(nc(OCC(F)(F)F)n2)Nc2ccc(cc2)C(=O)NCC1 [Example 6008]    0.1 to 100 nM
16  CC(C)(C)OC(=O)N1CCCCCCCCNc2nc(nc(OCC(F)(F)F)n2)Nc2ccc(cc2)C(=O)NCCC1 [Example 9002]    0.1 to 100 nM

====

System: HCV pseudoparticles, genotype 1a (H77C) E1 and E2 envelope
protocol-summary: microbe, parasite or virus in culture
Type: cell-based, HCV genotype 1a (H77C isolate)
assay-context: Hepatitis C virus, Huh-7, 48 h, read-out: EC50 (nM) 1a (H77C), Table 1a; HCV pseudoparticles 1a (H77C), Huh7 cells, luciferase 2 days after infection
measurement-name: EC50 (nM)

> print(dat)
                                   molecule                             target.system  value.reported
1  O=C1N[C@H]2CNC[C@@H]2C(=O)NCCCCCCOc2ccc(cc2)CNc2nc(nc(OCC(F)(F)F)n2)Nc2ccc1cc2 [Example 0007]  HCV pseudoparticles, genotype 1a (H77C) E1 and E2 envelope            8.31
2  O=C1NCCNCCNc2nc(nc(OCC(F)(F)F)n2)Nc2ccc1cc2 [Example 0001]  HCV pseudoparticles, genotype 1a (H77C) E1 and E2 envelope            4200
3  O=C1CCCCCCCCC(=O)NCc2ccc(cc2)Nc2nc(nc(OCC(F)(F)F)n2)NCc2ccc(cc2)CN1 [Example 0064]  HCV pseudoparticles, genotype 1a (H77C) E1 and E2 envelope             407
4  O=C1NCCCCCCCCCCNc2nc(nc(OCC(F)(F)F)n2)Nc2ccc1cc2 [Example 0003]  HCV pseudoparticles, genotype 1a (H77C) E1 and E2 envelope             101
5  O=C1NCCCOCCCCOCCCNc2nc(nc(OCC(F)(F)F)n2)Nc2ccc1cc2 [Example 0004]  HCV pseudoparticles, genotype 1a (H77C) E1 and E2 envelope            48.4
6  O=C1NCCCCCCCCCCCNC(=O)c2ccc(cc2)Nc2nc(nc(OCC(F)(F)F)n2)NCc2ccc1cc2 [Example 0038]  HCV pseudoparticles, genotype 1a (H77C) E1 and E2 envelope             840
7  O=C1NS(=O)(=O)C/C=C/CCOc2ccc(cc2)CNc2nc(nc(OCC(F)(F)F)n2)Nc2ccc1cc2 [Example 3004]  HCV pseudoparticles, genotype 1a (H77C) E1 and E2 envelope            2940
8  O=C1NC(C2CCCNC2)C(=O)NCCCCCCOc2ccc(cc2)CNc2nc(nc(OCC(F)(F)F)n2)Nc2ccc1cc2 (centres unmarked) [Example 0011]  HCV pseudoparticles, genotype 1a (H77C) E1 and E2 envelope            62.8
